target: Acyl-CoA:cholesterol acyltransferase (Oryctolagus cuniculus, UniProt Q95214); test: In vitro inhibitory activity against Acyl coenzyme A:cholesterol acyltransferase
Sequence (Q95214 whole entry): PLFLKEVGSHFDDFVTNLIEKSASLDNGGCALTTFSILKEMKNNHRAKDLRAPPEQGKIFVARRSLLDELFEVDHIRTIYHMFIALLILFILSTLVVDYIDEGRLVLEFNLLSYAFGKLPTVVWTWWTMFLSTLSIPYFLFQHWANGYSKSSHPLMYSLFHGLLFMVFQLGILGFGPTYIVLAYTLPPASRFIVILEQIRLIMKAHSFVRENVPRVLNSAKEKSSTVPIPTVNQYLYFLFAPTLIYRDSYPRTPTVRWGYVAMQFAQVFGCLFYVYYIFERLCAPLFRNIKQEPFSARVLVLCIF
assay-readout: IC50 (µM)

COc1c2c(c(OC)c3c(=O)cc(CN4CCC(CCC5CCN(Cc6cc(=O)c7c(OC)c8c(c(OC)c7o6)OCC8)CC5)CC4)oc13)CCO2
4.19
COc1c2occc2c(OC)c2c(=O)cc(CN3CCC(CCC4CCN(Cc5cc(=O)c6c(OC)c7ccoc7c(OC)c6o5)CC4)CC3)oc12
1.12
COc1c2occc2c(OC)c2c(=O)cc(CN3CCC(CCCC4CCN(Cc5cc(=O)c6c(OC)c7ccoc7c(OC)c6o5)CC4)CC3)oc12
5.78
